Test system: NCI-H460 lung
Test: NCI-60 one-dose screen, 48 h (100 = growth as untreated, 0 = no growth, -100 = all killed)
Conditions: 10 µM unless noted
Compounds without any hit were thinned out: in the full panel of roughly 83,000, 20% have a hit.
observationType: growth (%)
Please reply with the bare figure in % and do not write the unit itself.

These solved cases illustrate the format of a correct answer.
- compound: "CN1CCN(Cc2ccc(NC(=O)c3cncc(C#Cc4c(N)ncc5ccccc45)c3)cc2C(F)(F)F)CC1"
  uom: "%"
  growth: -71.5
- compound: "c1ccc(-c2cn3nc(-c4c[nH]c5ccccc45)sc3n2)cc1"
  uom: "%"
  growth: 89.2
- compound: "Cc1c(C)c2c(c(C)c1OC(=O)CCC(=O)[O-])CCC(C)(CCCCCCCCCCC[P+](c1ccccc1)(c1ccccc1)c1ccccc1)O2 (centres undefined)"
  uom: "%"
  growth: -69
- compound: "Fc1ccc(/C=C/c2cc(/C=C/c3ccc(F)cc3)n(-c3cc(F)cc(F)c3)n2)cc1"
  uom: "%"
  growth: 107

Suppose we examine the compound O=C1C(c2c(O)[nH]c3ncccc23)=Nc2ccccc21 ; what growth value has been reported?
47.7

Suppose we examine the compound Cc1nc2c(c(-c3ccccc3)n1)Cc1c(ccc3ccccc13)O2 ; what growth value has been reported?
98.1

Suppose we examine the compound CCN1CCN(C(=O)[C@]23CC[C@@H](C)[C@H](C)[C@@H]2C2=CC[C@@H]4[C@@]5(C)C/C(=C/c6ccncc6)C(=O)C(C)(C)[C@@H]5CC[C@@]4(C)[C@]2(C)CC3)CC1 ; what growth value has been reported?
-6.85

Suppose we examine the compound CCN(CC)CCCNC(=O)c1c2c(n3ccccc13)C(=O)c1ncccc1C2=O ; what growth value has been reported?
-44.4

Suppose we examine the compound COc1ccc(CNc2ccc3nc(CCC4CCCCC4)[nH]c3c2)cc1 ; what growth value has been reported?
88.6

Suppose we examine the compound COc1ccc(NC(=O)c2ccc(Cl)cc2Cl)cc1 ; what growth value has been reported?
97.8

Suppose we examine the compound C=CCOC(=O)C1=C(C)N(CC)C(=O)N(CC)C1c1c(Cl)n(C)c2ccccc12 (centres undefined) ; what growth value has been reported?
88.1

###

System: UACC-257 melanoma
Assay: NCI-60 one-dose screen, 48 h (100 = growth as untreated, 0 = no growth, -100 = all killed)
Conditions: 10 µM unless noted
Compounds without any hit were thinned out: in the full panel of roughly 83,000, 20% have a hit.
The entries below are paired with their reported growth.
Please reply with the bare figure in % and do not write the unit itself.

These solved cases illustrate the format of a correct answer.
- molecule: "COc1ccc2c(O)cc3c(c2c1)[C@H](CCl)CN3C(=O)c1cc2cc(NC(=O)CCN3CCOCC3)ccc2[se]1"
  observationType: "growth"
  uom: "%"
  quantitativeReadout: -47.5
- molecule: "COc1cc2c(c(OC)c1OC)CCC(c1cccc(C(=O)Nc3ccc([N+](=O)[O-])cc3)c1)O2 (centres undefined)"
  observationType: "growth"
  uom: "%"
  quantitativeReadout: 50.9
- molecule: "C=CC(=O)NCc1cccc(Nc2ncc(Br)c(NCCCNC(=O)C3CCC3)n2)c1"
  observationType: "growth"
  uom: "%"
  quantitativeReadout: 0.107

Now look at this entry.
Suppose we examine the molecule C=CCn1c(SCC(=O)Nc2ccc(C(=O)/C=C/c3cc(OC)c(OC)c(OC)c3)cc2)nnc1-c1cc(-c2ccc(S(N)(=O)=O)cc2)nc2ccccc12 ; what growth value has been reported?
96.1

Data origin: PubChem BioAssay (NCI)
